settings: 298.15 K; 101.33 kPa; Liquid; Concentric cylinders viscometry
test.readout: viscosity (mPa·s)

Take a look at these entries with their results.
1) CCCCn1cc[n+](C)c1.COS(=O)(=O)[O-] [1-butyl-3-methylimidazolium methyl sulfate] ... 223
2) CCn1cc[n+](C)c1.COS(=O)(=O)[O-] [1-ethyl-3-methylimidazolium methylsulfate] ... 74.3

(a) CCn1cc[n+](C)c1.O=S(=O)([O-])C(F)(F)F [1-ethyl-3-methylimidazolium trifluoromethanesulfonate]
(b) CCCCn1cc[n+](C)c1.O=S(=O)([O-])C(F)(F)F [1-butyl-3-methylimidazolium trifluoromethanesulfonate]
// max by viscosity over [ a , b ] // output: label of the selected item
b
(b: 86.6 mPa·s, a: 45.9 mPa·s)

* * *

settings: 313.15 K; 101.33 kPa; Liquid; Concentric cylinders viscometry
test.readout: viscosity (mPa·s)

Take a look at these entries with their results.
1. CCCCn1cc[n+](C)c1.O=S(=O)([O-])C(F)(F)F [1-butyl-3-methylimidazolium trifluoromethanesulfonate] ... 45.6
2. CCCCn1cc[n+](C)c1.COS(=O)(=O)[O-] [1-butyl-3-methylimidazolium methyl sulfate] ... 101

(I) CCn1cc[n+](C)c1.O=S(=O)([O-])C(F)(F)F [1-ethyl-3-methylimidazolium trifluoromethanesulfonate]
(II) CCn1cc[n+](C)c1.COS(=O)(=O)[O-] [1-ethyl-3-methylimidazolium methylsulfate]
// max by viscosity over [ I , II ] // output: label of the selected item
II

* * *

settings: 323.15 K; 101.33 kPa; Liquid; impedancemetry (AC impedance bridge)
test.readout: electrical conductivity (S/m)

1) CCCCn1cc[n+](C)c1.COS(=O)(=O)[O-] [1-butyl-3-methylimidazolium methyl sulfate] ... 0.382
2) CCn1cc[n+](C)c1.COS(=O)(=O)[O-] [1-ethyl-3-methylimidazolium methylsulfate] ... 1.39

(P) CCn1cc[n+](C)c1.O=S(=O)([O-])C(F)(F)F [1-ethyl-3-methylimidazolium trifluoromethanesulfonate]
(Q) CCCCn1cc[n+](C)c1.O=S(=O)([O-])C(F)(F)F [1-butyl-3-methylimidazolium trifluoromethanesulfonate]
// max by electrical conductivity over [ P , Q ] // output: label of the selected item
P
(P: 1.74 S/m, Q: 0.763 S/m)
